conditions: in transcutol, 303.2 K
measuredQuantity: solubility (mole fraction)

> print(dat)
                        smilesentry  resultnumber
1  COc1cc(/C=C/c2ccc(O)cc2)cc(OC)c1         0.235

###

conditions: in propylene glycol, 298.2 K
measuredQuantity: solubility (mole fraction)

> print(dat)
                        smilesentry  resultnumber
1  COc1cc(/C=C/c2ccc(O)cc2)cc(OC)c1          0.25

###

conditions: in PEG-400, 298.2 K
measuredQuantity: solubility (mole fraction)

> print(dat)
                        smilesentry  resultnumber
1  COc1cc(/C=C/c2ccc(O)cc2)cc(OC)c1         0.346

###

settings: in transcutol, 308.2 K
measuredQuantity: solubility (mole fraction)

> print(dat)
                        smilesentry  resultnumber
1  COc1cc(/C=C/c2ccc(O)cc2)cc(OC)c1         0.241

###

conditions: in ethanol, 318.2 K
measuredQuantity: solubility (mole fraction)

> print(dat)
                        smilesentry  resultnumber
1  COc1cc(/C=C/c2ccc(O)cc2)cc(OC)c1         0.136

###

settings: in PEG-400, 313.2 K
measuredQuantity: solubility (mole fraction)

> print(dat)
                        smilesentry  resultnumber
1  COc1cc(/C=C/c2ccc(O)cc2)cc(OC)c1         0.366

###

conditions: in ethanol, 303.2 K
measuredQuantity: solubility (mole fraction)

> print(dat)
                        smilesentry  result
1  COc1cc(/C=C/c2ccc(O)cc2)cc(OC)c1   0.117

###

details: in ethanol, 298.2 K
measuredQuantity: solubility (mole fraction)

> print(dat)
                        smilesentry  result
1  COc1cc(/C=C/c2ccc(O)cc2)cc(OC)c1   0.113

###

details: in ethanol, 313.2 K
measuredQuantity: solubility (mole fraction)

> print(dat)
                        smilesentry            measuredquantity  resultnumber
1  COc1cc(/C=C/c2ccc(O)cc2)cc(OC)c1  solubility (mole fraction)         0.129

###

conditions: in water, 308.2 K
measuredQuantity: solubility (mole fraction)

> print(dat)
                        smilesentry            measuredquantity  resultnumber
1  COc1cc(/C=C/c2ccc(O)cc2)cc(OC)c1  solubility (mole fraction)      2.04e-06

###

settings: in PEG-400, 303.2 K
measuredQuantity: solubility (mole fraction)

> print(dat)
                        smilesentry  resultnumber
1  COc1cc(/C=C/c2ccc(O)cc2)cc(OC)c1         0.351

###

conditions: in transcutol, 313.2 K
measuredQuantity: solubility (mole fraction)

> print(dat)
                        smilesentry  result
1  COc1cc(/C=C/c2ccc(O)cc2)cc(OC)c1   0.248

###

settings: in water, 318.2 K
measuredQuantity: solubility (mole fraction)

> print(dat)
                        smilesentry  resultnumber
1  COc1cc(/C=C/c2ccc(O)cc2)cc(OC)c1      2.95e-06
